Origin of values: ChEMBL document CHEMBL1201862

Biological target: Polyadenylate-binding protein 1 (Homo sapiens, UniProt P11940)
Sequence (P11940 whole entry, the tested form may be a part): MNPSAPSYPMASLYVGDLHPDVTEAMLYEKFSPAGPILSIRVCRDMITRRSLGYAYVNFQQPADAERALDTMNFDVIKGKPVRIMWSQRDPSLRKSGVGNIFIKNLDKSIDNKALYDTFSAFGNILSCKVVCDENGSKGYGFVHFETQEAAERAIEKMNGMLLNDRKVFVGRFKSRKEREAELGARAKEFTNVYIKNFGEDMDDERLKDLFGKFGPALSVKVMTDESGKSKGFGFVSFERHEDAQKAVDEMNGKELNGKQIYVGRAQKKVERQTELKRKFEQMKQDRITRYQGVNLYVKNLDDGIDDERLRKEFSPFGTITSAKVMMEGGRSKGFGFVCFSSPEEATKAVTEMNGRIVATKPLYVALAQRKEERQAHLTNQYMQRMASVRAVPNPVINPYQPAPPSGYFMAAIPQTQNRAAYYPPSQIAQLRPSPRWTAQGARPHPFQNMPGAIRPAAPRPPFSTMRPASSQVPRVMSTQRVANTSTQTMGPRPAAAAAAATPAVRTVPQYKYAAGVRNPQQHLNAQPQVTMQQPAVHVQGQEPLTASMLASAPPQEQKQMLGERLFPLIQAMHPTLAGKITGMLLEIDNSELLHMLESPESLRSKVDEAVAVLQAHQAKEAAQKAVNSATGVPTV
Assay: MLLE domain peptide-binding blockers, IC50 – biochemical, fluorescence polarization, FITC-PAM2 peptide, dose response (AID 602259)
Type: functional
Details: read-out: IC50_Mean
Active and inactive are the calls of the source. Cut-off read from the data, not from the text of the source: active = IC50 of 20 µM or less and inactive = more.
Consider the following molecules; for each one, report its IC50.

# molecule `O=C(COc1ccc(Br)cc1)NNC(=O)c1ccc(-n2cncn2)c([N+](=O)[O-])c1` ; its IC50 = > 66 µM (inactive)

# molecule `O=S(=O)(NC(=S)NC1CCCCC1)c1ccccc1` ; its IC50 = > 66 µM (inactive)

Now take the following molecule into account.
# molecule `O=C(NC(=S)Nc1cccc2cccnc12)c1ccccc1` ; its IC50 = > 66 µM (inactive)
